# ASSAYED TARGET: UniProt Q02156
# Sequence (Q02156 whole entry): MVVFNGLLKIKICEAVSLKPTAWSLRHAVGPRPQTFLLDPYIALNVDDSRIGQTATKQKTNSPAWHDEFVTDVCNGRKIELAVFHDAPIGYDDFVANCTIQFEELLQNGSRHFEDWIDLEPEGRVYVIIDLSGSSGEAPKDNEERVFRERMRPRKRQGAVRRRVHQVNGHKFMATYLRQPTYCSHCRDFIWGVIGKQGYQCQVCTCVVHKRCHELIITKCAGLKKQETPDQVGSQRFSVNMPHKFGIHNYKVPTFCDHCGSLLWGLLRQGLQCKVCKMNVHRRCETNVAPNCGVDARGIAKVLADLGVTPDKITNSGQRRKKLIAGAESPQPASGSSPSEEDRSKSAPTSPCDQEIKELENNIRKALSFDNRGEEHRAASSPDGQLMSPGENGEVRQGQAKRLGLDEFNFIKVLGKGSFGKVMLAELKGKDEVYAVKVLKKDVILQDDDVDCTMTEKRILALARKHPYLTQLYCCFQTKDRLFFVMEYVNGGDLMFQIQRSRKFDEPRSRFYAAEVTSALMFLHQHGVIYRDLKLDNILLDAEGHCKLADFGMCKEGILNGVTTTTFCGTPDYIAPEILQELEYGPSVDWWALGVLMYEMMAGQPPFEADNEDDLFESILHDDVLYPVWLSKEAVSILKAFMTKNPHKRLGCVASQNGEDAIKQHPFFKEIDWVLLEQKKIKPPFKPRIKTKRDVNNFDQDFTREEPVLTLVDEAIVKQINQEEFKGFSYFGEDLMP
MEASURED QUANTITY: IC50

substance_smiles=CN1CCN(c2nc(C3=C(c4c[nH]c5ccccc45)C(=O)NC3=O)c3ccccc3n2)CC1 obs_value="3.2 nM"
